# Tested on: HEK293
# ASSAY: Selectivity ratio of Ki for 5-HT1A receptor in rat hippocampus to Ki for human 5-HT7 receptor expressed in HEK293 cells
# Type: cell-based

COMPOUND: O=S(=O)(NCCCN1CCC2CCCCC2C1)c1ccc2ncccc2c1 (stereo not given)
Ratio Ki: 3

COMPOUND: CCN(CCCCN1CCN(c2ccccc2OC)CC1)S(=O)(=O)c1ccc2ncccc2c1
Ratio Ki: 0.5

COMPOUND: CCN(CCCCN1CCC2CCCCC2C1)S(=O)(=O)c1cccc2cccnc12 (stereo not given)
Ratio Ki: 84.5

COMPOUND: CCN(CCCCN1CCN(c2ccccc2OC)CC1)S(=O)(=O)c1cnc2ccccc2c1
Ratio Ki: 0.2

COMPOUND: COc1ccccc1N1CCN(CCCCNS(=O)(=O)c2ccc3ncccc3c2)CC1
Ratio Ki: 0.3

COMPOUND: CCN(CCCCN1CCC2CCCCC2C1)S(=O)(=O)c1cnc2ccccc2c1 (stereo not given)
Ratio Ki: 1.7

COMPOUND: O=S(=O)(NCCCCN1CCc2ccccc2C1)c1cnc2ccccc2c1
Ratio Ki: 1.3

COMPOUND: CCN(CCCCN1CCN(c2ccccc2OC)CC1)S(=O)(=O)c1cccc2cccnc12
Ratio Ki: 0.8

COMPOUND: O=S(=O)(NCCCCN1CCc2sccc2C1)c1cnc2ccccc2c1
Ratio Ki: 1.9

COMPOUND: COc1ccccc1N1CCN(CCCCNS(=O)(=O)c2cnc3ccccc3c2)CC1
Ratio Ki: 0.05

COMPOUND: CCN(CCCN1CCN(c2ccccc2OC)CC1)S(=O)(=O)c1ccc2ncccc2c1
Ratio Ki: 0.9

COMPOUND: COc1ccccc1N1CCN(CCCNS(=O)(=O)c2ccc3ncccc3c2)CC1
Ratio Ki: 0.1

COMPOUND: O=S(=O)(NCCCCN1CCc2ccccc2C1)c1ccc2ncccc2c1
Ratio Ki: 1

COMPOUND: CCN(CCCCCN1CCC2CCCCC2C1)S(=O)(=O)c1cccc2cccnc12 (stereo not given)
Ratio Ki: 9.5

COMPOUND: COc1ccccc1N1CCN(CCCNS(=O)(=O)c2cccc3cccnc23)CC1
Ratio Ki: 0.4

COMPOUND: COc1ccccc1N1CCN(CCCCNS(=O)(=O)c2cccc3cccnc23)CC1
Ratio Ki: 0.9

COMPOUND: O=S(=O)(NCCCCN1CCC2CCCCC2C1)c1cnc2ccccc2c1 (stereo not given)
Ratio Ki: 1.5

COMPOUND: O=S(=O)(NCCCCN1CCC2CCCCC2C1)c1cccc2cccnc12 (stereo not given)
Ratio Ki: 2.8

COMPOUND: O=S(=O)(NCCCCN1CCc2ccccc2C1)c1cccc2cccnc12
Ratio Ki: 3

COMPOUND: O=S(=O)(NCCCCN1CCc2sccc2C1)c1ccc2cccnc2c1
Ratio Ki: 1.4
